molecular target: ML1b receptor (Homo sapiens); construct: expressed in transfected cells; test: Melatonergic receptor binding activity, 2-[125I]-iodomelatonin, ML1b; details: Table IV; 37° C. for 1 hour
Sequence (P49286 whole entry): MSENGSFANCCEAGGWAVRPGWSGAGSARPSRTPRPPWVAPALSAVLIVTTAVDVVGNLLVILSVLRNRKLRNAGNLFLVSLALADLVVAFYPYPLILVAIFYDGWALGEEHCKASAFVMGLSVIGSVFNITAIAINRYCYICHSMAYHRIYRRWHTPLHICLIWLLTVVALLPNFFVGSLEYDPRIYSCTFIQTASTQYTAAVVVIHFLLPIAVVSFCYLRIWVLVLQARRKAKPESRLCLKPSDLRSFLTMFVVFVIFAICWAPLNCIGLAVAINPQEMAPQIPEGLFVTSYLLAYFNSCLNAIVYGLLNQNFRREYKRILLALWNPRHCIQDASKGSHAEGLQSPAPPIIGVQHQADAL
Attribute: IC50

compound: O=C(NC[C@@H]1C[C@H]1c1cccc2oc(CCCCc3ccc(F)cc3)cc12)C1CC1 (stereo in doubt) [Example 40]
IC50: 10 to 250 nM

compound: CCC(=O)NC[C@H]1C[C@@H]1c1cccc2oc(CCCCc3ccccc3)cc12 (racemic) [Example 31]
IC50: < 10 nM

compound: CC(=O)NC[C@H]1C[C@@H]1c1cccc2oc(CCCCc3ccccc3)cc12 (single isomer, unassigned) [Example 30]
IC50: > 250 nM

compound: CC(=O)NC[C@H]1C[C@@H]1c1cccc2oc(CCCCc3ccccc3)cc12 (single isomer, unassigned) [Example 29]
IC50: 10 to 250 nM

compound: CCCC(=O)NC[C@H]1C[C@@H]1c1cccc2oc(CCCCc3ccccc3)cc12 (racemic) [Example 32]
IC50: 10 to 250 nM

compound: CC(C)C(=O)NC[C@@H]1C[C@H]1c1cccc2oc(CCCCc3ccc(F)cc3)cc12 (stereo in doubt) [Example 39]
IC50: 10 to 250 nM

# credit: patent US6569894B1
